Kindly supply the reported normalized RNA/DNA level without ligand (log10) values for the records listed here.
B1: library; a variant is named by its letters at N, in order (parent)
chain: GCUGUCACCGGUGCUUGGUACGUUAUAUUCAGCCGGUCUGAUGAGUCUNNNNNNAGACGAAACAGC

Variants of: B1
assay_info: normalized RNA/DNA level without ligand (relative to sTRSVctl = 100) (log10 (% of sTRSVctl)); HEK293T overexpressing SLC46A1; higher = less ribozyme self-cleavage, higher mRNA level
particulars: without (6R,S)-folinic acid; ligand present: no

Prompt: Give the measured normalized RNA/DNA level without ligand (log10) of `UCCAUG` .
Completion: 1.86

Prompt: Now give it for `ACAAAG` too.
Completion: 1.93

Prompt: Now give it for `ACCACU` too.
Completion: 2.03

Prompt: Now give it for `CUCAAU` too.
Completion: 1.97

Prompt: Now give it for `GGAAUC` too.
Completion: 2.05

Prompt: Now give it for `UGGUUU` too.
Completion: 1.95

Prompt: Now give it for `GUUGAU` too.
Completion: 1.97

Prompt: Now give it for `AAUUAA` too.
Completion: 1.95

Prompt: Now give it for `GAACAG` too.
Completion: 1.96

Prompt: Now give it for `CGGCGC` too.
Completion: 2.08

Prompt: Now give it for `GCAUUA` too.
Completion: 2
